Recorded values, source ChEMBL document CHEMBL1156036.

# Protocol: Antiplatelet aggregatory activity in pig […] assessed as inhibition of platelet-activating factor-induced platelet aggregation
# Type: functional
# Particulars: Sus scrofa
Square brackets hold non-standard residues; d marks the D form. Peptide text beside a SMILES is read from it. Tic = O=C(O)[C@@H]1Cc2ccccc2CN1
Below, each of the molecules is paired with its reported pIC50 value.
Remember, pIC50 is on a log scale: it is -log10 of the molar concentration.

The cases that follow already have their pIC50 on record.
O=C(O)[C@H](Cc1ccccc1)NC(=O)[C@@H]1Cc2ccccc2CN1 (H-[Tic]-Phe-OH)	6.66
N[C@@H](CC(=O)O)C(=O)N1Cc2ccccc2C[C@H]1C(=O)O (H-Asp-[Tic]-OH)	6.42
NCCCC[C@H](NC(=O)[C@@H]1Cc2ccccc2CN1)C(=O)O (H-[Tic]-Lys-OH)	5.98
NC(=O)C[C@H](N)C(=O)N1Cc2ccccc2C[C@H]1C(=O)O (H-Asn-[Tic]-OH)	6.44
C[C@@H](O)[C@H](N)C(=O)N1Cc2ccccc2C[C@H]1C(=O)O (H-Thr-[Tic]-OH)	6.39
NC(=O)C[C@H](NC(=O)[C@@H]1Cc2ccccc2CN1)C(=O)O (H-[Tic]-Asn-OH)	6.82
CSCC[C@H](N)C(=O)N1Cc2ccccc2C[C@H]1C(=O)O (H-Met-[Tic]-OH)	6.39
CC[C@H](C)[C@H](N)C(=O)N1Cc2ccccc2C[C@H]1C(=O)O (H-Ile-[Tic]-OH)	6.08

Lab note: next molecule to report on.
Lookup: Output measured pIC50 for this item: O=C(O)CNC(=O)[C@@H]1Cc2ccccc2CN1 (H-[Tic]-Gly-OH)
Found: 6.10
